The reader will find reported Percent Effect values listed item by item below.
System: Trypanosoma cruzi
Measurement protocol: Trypanosoma cruzi phosphomannomutase and mannose-1-phosphate guanylyltransferase assay
Format: functional
Parameters: scale not given: direction of the effect not stated beside the values
Condition info: 10 µM
Numbers only here, please. The scale is %.

CN(CC1CCCO1)C1CCN(CCc2ccccn2)CC1 (stereo unspecified) ... -1.95
CC(C)(CO)NC(=O)C1CCC(=O)N(Cc2ccc(Cl)cc2)C1 (stereo unspecified) ... -1.26
CC(Cn1cccn1)NCc1csc(-c2ccccc2F)n1 (stereo unspecified) ... 3.87
O=C(c1cccc(S(=O)(=O)NCCCc2ccco2)c1)N1CCOCC1 ... 1.37
CN(Cc1cn2c(n1)CN(c1ncc(F)cn1)CC2)Cc1ccco1 ... 0.197

// below: Percent Effect requested for another compound
Looking for the measured Percent Effect of "Cc1oc(C)c(C(=O)NCc2cccc(NC(=O)CN(C)C)c2)c1C" , can you help?
1.95

Hello, the source for this data is ChEMBL document CHEMBL3988442, in case you need it.
